METHOD_SUMMARY: Metabolic stability assay (human microsomal Clint)
Type: in vitro ADME
SETTINGS: 1 μM compound, 1 mg/mL microsomes, 1 mM NADPH, 37° C.
ENDPOINT_NAME: Human liver microsomal CLint (µL/min/mg)
Express your answer in µL/min/mg, writing the number without its unit.

>  <COMPOUND>
COC1CCC(n2nc(C)c3cnc(Nc4cn5ncnc5cc4C)nc32)C1 (single isomer, unassigned) [Example 110]

>  <Human liver microsomal CLint [µL/min/mg]>
64.8

$$$$

Can you share its Human liver microsomal CLint? I mean this compound: Cc1cc2ncnn2cc1Nc1ncc2c(C)nn(CC3CCOC3)c2n1 (single isomer, unassigned)
15.2

Can you share its Human liver microsomal CLint? I mean this compound: COC1CCC(n2nc(C)c3cnc(Nc4cn5ncnc5cc4C)nc32)C1 (single isomer, unassigned) [Example 109]
87.2

Can you share its Human liver microsomal CLint? I mean this compound: Cc1cc2ncnn2cc1Nc1ncc2c(C)nn(C3CCOCC3C)c2n1 (single isomer, unassigned) [Example 113]
60.5

Can you share its Human liver microsomal CLint? I mean this compound: Cc1cc2ncnn2cc1Nc1ncc2c(C)nn(C3CCOCC3C)c2n1 (single isomer, unassigned) [Example 114]
50.4

Can you share its Human liver microsomal CLint? I mean this compound: Cc1cc2ncnn2cc1Nc1ncc2c(C)nn(C3CCOC(C)C3)c2n1 (single isomer, unassigned)
51.5

* * *

Reported pIC50 values, Full length human DNAPK protein (Homo sapiens).
Note on pIC50: it is the negative log10 of concentration, concentration in mol/L.

Can you share its pIC50? I mean this compound: Cc1cc2nccn2cc1Nc1ncc2c(C)nn(C3CCC(F)(F)CC3)c2n1
8.89

Can you share its pIC50? I mean this compound: COCCC(C)n1nc(C)c2cnc(Nc3cn4ncnc4cc3C)nc21 (single isomer, unassigned)
7.19

Can you share its pIC50? I mean this compound: [2H]C([2H])([2H])n1nc(C2CCOCC2)c2nc(Nc3cn4ncnc4cc3C)ncc21
8.77

Can you share its pIC50? I mean this compound: COC1CCC(n2nc(C)c3cnc(Nc4cn5ncnc5cc4C)nc32)C1 (single isomer, unassigned) [Example 109]
8.40

* * *

Human liver microsomal CLint reference
METHOD_SUMMARY: Metabolic stability assay (human microsomal Clint)
Format: in vitro ADME
SETTINGS: 1 μM compound, 1 mg/mL microsomes, 1 mM NADPH, 37° C.
Express your answer in µL/min/mg, writing the number without its unit.

Can you share its Human liver microsomal CLint? I mean this compound: Cc1cc2ncnn2cc1Nc1ncc2c(C)nn(CC3CCCO3)c2n1 (single isomer, unassigned)
20.9

Can you share its Human liver microsomal CLint? I mean this compound: Cc1cc2ncnn2cc1Nc1ncc2c(C)nn(C3CCOC3)c2n1 (single isomer, unassigned)
8.7

Can you share its Human liver microsomal CLint? I mean this compound: COC1CCC(n2nc(C)c3cnc(Nc4cn5ncnc5cc4C)nc32)C1 (single isomer, unassigned) [Example 111]
68.5

Can you share its Human liver microsomal CLint? I mean this compound: CCC(C)n1nc(C)c2cnc(Nc3cn4ncnc4cc3C)nc21 (single isomer, unassigned)
42.4

Can you share its Human liver microsomal CLint? I mean this compound: COCCC(C)n1nc(C)c2cnc(Nc3cn4ncnc4cc3C)nc21 (single isomer, unassigned)
201.9

Can you share its Human liver microsomal CLint? I mean this compound: Cc1cc2ncnn2cc1Nc1ncc2c(C)nn(C3CCCOCC3)c2n1 (single isomer, unassigned)
31.4

Can you share its Human liver microsomal CLint? I mean this compound: Cc1cc2ncnn2cc1Nc1ncc2c(C)nn(C3CCOCC3C)c2n1 (single isomer, unassigned) [Example 115]
53.5

Can you share its Human liver microsomal CLint? I mean this compound: Cc1cc2ncnn2cc1Nc1ncc2c(C)nn(C3CCOC(C)(C)C3)c2n1 (single isomer, unassigned)
50.4

Can you share its Human liver microsomal CLint? I mean this compound: Cc1cc2ncnn2cc1Nc1ncc2c(C)nn(C3CCCOC3)c2n1 (single isomer, unassigned)
17.7

* * *

Test system: Rat hepatocyte
METHOD_SUMMARY: Metabolic stability assay (rat hepatocyte Clint)
Type: in vitro ADME
SETTINGS: 1 μM compound, cryopreserved hepatocytes 1 million cells per mL
Decide using Rat hepatocyte CLint (μl/min/10^−6 cells) alone. Strictly below 20 μl/min/10^−6 cells: Criterion met. Equal to or above 20 μl/min/10^−6 cells: Criterion not met.

Reference set (10 entries):
>  <COMPOUND>
COc1ccc(Cn2nc(C)c3cnc(Nc4cn5ncnc5cc4C)nc32)cc1 [Example 18]

>  <TARGET_DESC>
Rat hepatocyte

>  <ASSIGNED_CLASS>
Criterion not met

$$$$
>  <COMPOUND>
COCCCn1nc(C)c2cnc(Nc3cn4ncnc4cc3C)nc21 [Example 65]

>  <TARGET_DESC>
Rat hepatocyte

>  <ASSIGNED_CLASS>
Criterion met

$$$$
>  <COMPOUND>
Cc1cc2ncnn2cc1Nc1ncc2c(n1)c(C1CCCCC1)nn2C [Example 5]

>  <TARGET_DESC>
Rat hepatocyte

>  <ASSIGNED_CLASS>
Criterion not met

$$$$
>  <COMPOUND>
Cc1cc2ncnn2cc1Nc1ncc2c(C)nn(CCC#N)c2n1 [Example 72]

>  <TARGET_DESC>
Rat hepatocyte

>  <ASSIGNED_CLASS>
Criterion met

$$$$
>  <COMPOUND>
COCCC(C)n1nc(C)c2cnc(Nc3cn4ncnc4cc3C)nc21 (single isomer, unassigned) [Example 68]

>  <TARGET_DESC>
Rat hepatocyte

>  <ASSIGNED_CLASS>
Criterion not met

$$$$
>  <COMPOUND>
COC(C)Cn1nc(C)c2cnc(Nc3cn4ncnc4cc3C)nc21 (racemic) [Example 69]

>  <TARGET_DESC>
Rat hepatocyte

>  <ASSIGNED_CLASS>
Criterion met

$$$$
>  <COMPOUND>
Cc1cc2ncnn2cc1Nc1ncc2c(C)nn(C3CC(C)OC(C)C3)c2n1 (single isomer, unassigned) [Example 86]

>  <TARGET_DESC>
Rat hepatocyte

>  <ASSIGNED_CLASS>
Criterion not met

$$$$
>  <COMPOUND>
CO[C@H]1CC[C@H](n2nc(C)c3cnc(Nc4cn5ncnc5cc4C)nc32)CC1 [Example 24]

>  <TARGET_DESC>
Rat hepatocyte

>  <ASSIGNED_CLASS>
Criterion met

$$$$
>  <COMPOUND>
Cc1cc2ncnn2cc1Nc1ncc2c(n1)c(C(C)C)nn2C [Example 4]

>  <TARGET_DESC>
Rat hepatocyte

>  <ASSIGNED_CLASS>
Criterion met

$$$$
>  <COMPOUND>
Cc1cc2nccn2cc1Nc1ncc2c(C)nn(C3CCOCC3)c2n1 [Example 14]

>  <TARGET_DESC>
Rat hepatocyte

>  <ASSIGNED_CLASS>
Criterion met

$$$$

Could you please tell me whether Rat hepatocyte CLint (μl/min/10^−6 cells) recorded for Cc1cc2ncnn2cc1Nc1ncc2c(C)nn(C3CCC(F)(F)CC3)c2n1 [Example 21] is less than 20 μl/min/10^−6 cells?
Criterion met

Could you please tell me whether Rat hepatocyte CLint (μl/min/10^−6 cells) recorded for Cc1cc2ncnn2cc1Nc1ncc2c(C)nn(C3CCOCC3C)c2n1 (single isomer, unassigned) [Example 113] is less than 20 μl/min/10^−6 cells?
Criterion met

Could you please tell me whether Rat hepatocyte CLint (μl/min/10^−6 cells) recorded for COC1CCC(n2nc(C)c3cnc(Nc4cn5ncnc5cc4C)nc32)C1 (single isomer, unassigned) [Example 111] is less than 20 μl/min/10^−6 cells?
Criterion met

* * *

Reported pIC50 values, Full length human DNAPK protein (Homo sapiens).
Note on pIC50: it is the negative log10 of concentration, concentration in mol/L.

In the examples that follow, each entry is paired with its recorded pIC50.
>  <MOLECULE>
Cc1cc2ncnn2cc1Nc1ncc2c(C)nn(C3CCCOCC3)c2n1 (single isomer, unassigned) [Example 33]

>  <pIC50>
8.82

$$$$
>  <MOLECULE>
Cc1cc2ncnn2cc1Nc1ncc2c(C)nn(C3CCOCC3C)c2n1 (single isomer, unassigned) [Example 113]

>  <pIC50>
8.49

$$$$
>  <MOLECULE>
Cc1cc2ncnn2cc1Nc1ncc2c(C)nn([C@H]3CC[C@H](F)CC3)c2n1 [Example 28]

>  <pIC50>
8.89

$$$$
>  <MOLECULE>
Cc1cc2ncnn2cc1Nc1ncc2c(C)nn([C@H]3C[C@H]4CC[C@@H](C3)O4)c2n1 [Example 106]

>  <pIC50>
9.05

$$$$
>  <MOLECULE>
Cc1cc2ncnn2cc1Nc1ncc2c(C)nn(C3CCCOC3)c2n1 (single isomer, unassigned) [Example 29]

>  <pIC50>
8.70

$$$$
>  <MOLECULE>
Cc1cc2ncnn2cc1Nc1ncc2c(C)nn(C3CCOCC3C)c2n1 (single isomer, unassigned) [Example 115]

>  <pIC50>
8.72

$$$$

Can you share its pIC50? I mean this molecule: Cc1cc(-c2nn(C)c3cnc(Nc4cn5ncnc5cc4C)nc23)ccn1 [Example 102]
9.05

Can you share its pIC50? I mean this molecule: CO[C@H]1CC[C@H](c2nn(C)c3cnc(Nc4cn5ncnc5cc4C)nc32)CC1 [Example 7]
9.10

Can you share its pIC50? I mean this molecule: Cc1cc2ncnn2cc1Nc1ncc2c(n1)c(C1CCOCC1C)nn2C (single isomer, unassigned) [Example 56]
8.96

Can you share its pIC50? I mean this molecule: Cc1cc2ncnn2cc1Nc1ncc2c(C)nn(CCOC(F)(F)F)c2n1 [Example 64]
8.44

Can you share its pIC50? I mean this molecule: CO[C@H]1CC[C@@H](c2nn(C)c3cnc(Nc4cn5ncnc5cc4C)nc32)CC1 [Example 8]
9.15

Can you share its pIC50? I mean this molecule: Cc1cc2ncnn2cc1Nc1ncc2c(n1)c([C@H]1CC[C@H](OC(F)F)CC1)nn2C [Example 12]
8.96
